Test system: Candida parapsilosis
Assay: Fungicidal activity against Candida parapsilosis MTCC 1744 assessed as fungal killing incubated for 24 hrs
Assay type: functional
Conditions: Lodderomyces parapsilosis, MTCC 1744, 24 h
ASSAY_ENDPOINT: MFC (µg/mL)

compound=COc1ccc2c(c1)Cc1c(C(=O)N/N=C/c3c(F)cc(F)cc3F)n[nH]c1-2 experimental_target="Candida parapsilosis" observed=31.2
compound=O=C(N/N=C/c1ccc(O)cc1)c1n[nH]c2c1Cc1cc(F)ccc1-2 experimental_target="Candida parapsilosis" observed=31.2
compound="Clc1ccc(COC(Cn2ccnc2)c2ccc(Cl)cc2Cl)c(Cl)c1 (stereo unspecified)" experimental_target="Candida parapsilosis" observed=7.8
compound=O=C(N/N=C/c1ccc(O)cc1)c1n[nH]c2c1Cc1ccccc1-2 experimental_target="Candida parapsilosis" observed=31.2
compound=COc1ccc2c(c1)Cc1c(C(=O)N/N=C/c3ccc(O)c(OC)c3)n[nH]c1-2 experimental_target="Candida parapsilosis" observed=15.6
compound=COc1cc(/C=N/NC(=O)c2n[nH]c3c2Cc2ccccc2-3)ccc1O experimental_target="Candida parapsilosis" observed=31.2

====

Tested on: Candida albicans
Assay: Fungicidal activity against Candida albicans MTCC 7315 assessed as fungal killing incubated for 24 hrs
Type: functional
Settings: MTCC 7315, 24 h
Below, each entry is listed alongside its reported MFC.
ASSAY_ENDPOINT: MFC (µg/mL)

compound="Clc1ccc(COC(Cn2ccnc2)c2ccc(Cl)cc2Cl)c(Cl)c1 (stereo unspecified)" result_units=µg/mL observed=7.8
compound=COc1ccc2c(c1)Cc1c(C(=O)N/N=C/c3c(F)cc(F)cc3F)n[nH]c1-2 result_units=µg/mL observed=31.2
compound=COc1ccc2c(c1)Cc1c(C(=O)N/N=C/c3ccc(O)c(OC)c3)n[nH]c1-2 result_units=µg/mL observed=15.6
compound=COc1cc(/C=N/NC(=O)c2n[nH]c3c2Cc2ccccc2-3)ccc1O result_units=µg/mL observed=15.6
compound=O=C(N/N=C/c1ccc(O)cc1)c1n[nH]c2c1Cc1cc(F)ccc1-2 result_units=µg/mL observed=31.2
compound=O=C(N/N=C/c1ccc(O)cc1)c1n[nH]c2c1Cc1ccccc1-2 result_units=µg/mL observed=31.2

====

Readings of MIC for the listed molecules
Test system: Candida albicans
Test: Antifungal activity against Candida albicans MTCC 3017 assessed as inhibition of fungal growth incubated for 24 hrs by agar well diffusion method
Format: functional
Settings: MTCC 3017, 24 h
ASSAY_ENDPOINT: MIC

smi=O=C(N/N=C/c1ccc(Br)cc1)c1n[nH]c2c1Cc1cc(F)ccc1-2 experimental_target="Candida albicans" observed="> 125 µg/mL"
smi=O=C(N/N=C/c1ccc(Cl)cc1)c1n[nH]c2c1Cc1ccccc1-2 experimental_target="Candida albicans" observed="> 125 µg/mL"
smi=COc1ccc2c(c1)Cc1c(C(=O)N/N=C/c3ccc(Br)cc3)n[nH]c1-2 experimental_target="Candida albicans" observed="> 125 µg/mL"
smi=COc1ccc(/C=N/NC(=O)c2n[nH]c3c2Cc2cc(F)ccc2-3)cc1OC experimental_target="Candida albicans" observed="> 125 µg/mL"
smi=COc1ccc2c(c1)Cc1c(C(=O)N/N=C/c3cc(OC)c(OC)c(OC)c3)n[nH]c1-2 experimental_target="Candida albicans" observed="> 125 µg/mL"
smi=COc1ccc2c(c1)Cc1c(C(=O)N/N=C/c3c(F)cc(F)cc3F)n[nH]c1-2 experimental_target="Candida albicans" observed="3.9 µg/mL"
smi=O=C(N/N=C/c1c(F)cc(F)cc1F)c1n[nH]c2c1Cc1ccccc1-2 experimental_target="Candida albicans" observed="> 125 µg/mL"
smi=COc1ccc2c(c1)Cc1c(C(=O)N/N=C/c3ccc(Cl)cc3)n[nH]c1-2 experimental_target="Candida albicans" observed="> 125 µg/mL"
smi=O=C(N/N=C/c1ccc(O)cc1)c1n[nH]c2c1Cc1ccccc1-2 experimental_target="Candida albicans" observed="7.8 µg/mL"
smi=COc1cc(/C=N/NC(=O)c2n[nH]c3c2Cc2cc(F)ccc2-3)ccc1O experimental_target="Candida albicans" observed="31.2 µg/mL"
smi=COc1cc(/C=N/NC(=O)c2n[nH]c3c2Cc2cc(F)ccc2-3)cc(OC)c1OC experimental_target="Candida albicans" observed="> 125 µg/mL"
smi=COc1cc(/C=N/NC(=O)c2n[nH]c3c2Cc2ccccc2-3)ccc1O experimental_target="Candida albicans" observed="7.8 µg/mL"
